Molecular target: CCXCKR2 receptor (Homo sapiens, UniProt P25106)
Construct: expressed in transfected cells; host or cells: MDA-MB-435S transfected with pcDNA3.1(+)-hRDC1 and/or MCF-7 (endogenous receptor)
Sequence (P25106 whole entry): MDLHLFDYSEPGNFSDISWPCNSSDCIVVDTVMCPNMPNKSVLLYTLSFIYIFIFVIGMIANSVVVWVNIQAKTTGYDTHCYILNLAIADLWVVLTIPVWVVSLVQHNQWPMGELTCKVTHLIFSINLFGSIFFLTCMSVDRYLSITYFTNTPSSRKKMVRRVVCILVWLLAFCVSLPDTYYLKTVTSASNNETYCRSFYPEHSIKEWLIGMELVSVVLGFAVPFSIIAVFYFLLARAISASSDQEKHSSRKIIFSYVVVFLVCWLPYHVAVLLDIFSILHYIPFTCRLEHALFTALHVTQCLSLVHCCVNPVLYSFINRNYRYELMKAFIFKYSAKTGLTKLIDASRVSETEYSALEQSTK
Assay: Displacement of 125I-labeled SDF-1 from the CCXCKR2 receptor on MCF-7 and/or CCXCKR2-transfected MDA-MB-435S cells (radioligand binding, filtration)
Conditions: 125I SDF-1, 3 hr at 4° C., MCF-7 and/or MDA-MB-435S cells; read-out: Activity (concentration displacing at least 50% of the SDF-1 from the CCXCKR2 receptor)
pIC50: −log10 of the molar value.
outcome measure: pIC50

query smiles | pIC50
COc1cc(C(=O)c2cn(Cc3cccc(C)n3)c3ncccc3c2=O)ccc1Cl | > 7.00
CC(C)Oc1ccc(C(=O)c2cn(Cc3cccc(Br)n3)c3ccccc3c2=O)cc1 | 6.30 to 7.00
CNc1cccc(Cn2cc(C(=O)c3ccc(C)c(C)c3)c(=O)c3ccccc32)n1 | > 7.00

// input: 6 compounds below; output: pIC50 for each
1. O=C(c1ccc(C2OCCCO2)cc1)c1cn(Cc2cccc(Br)n2)c2ccccc2c1=O
2. Cc1ccc(C(=O)c2cn(Cc3ncccn3)c3ccccc3c2=O)cc1C
3. Cc1cccc(Cn2cc(C(=O)c3ccc4c(c3)OCCO4)c(=O)c3cccnc32)n1
4. COc1ccc(C(=O)c2cn(Cc3cccc(Br)n3)c3ncccc3c2=O)cc1
5. Cc1ccnc(C(=O)c2cn(Cc3cccc(Br)n3)c3ccccc3c2=O)c1
6. Cc1ccc(C(=O)c2cn(Cc3cccc(Br)n3)c3ccccc3c2=O)c(C)c1

Key:
1. 6.30 to 7.00
2. > 7.00
3. > 7.00
4. > 7.00
5. 6.30 to 7.00
6. > 7.00

---

Molecular target: CCXCKR2 receptor (Homo sapiens, UniProt P25106)
Construct: expressed in transfected cells; host or cells: MDA-MB-435S transfected with pcDNA3.1(+)-hRDC1 and/or MCF-7 (endogenous receptor)
Experiment: Displacement of 125I-labeled SDF-1 from the CCXCKR2 receptor on MCF-7 and/or CCXCKR2-transfected MDA-MB-435S cells (radioligand binding, filtration)
Conditions: 125I SDF-1, 3 hr at 4° C., MCF-7 and/or MDA-MB-435S cells; read-out: Activity (concentration displacing at least 50% of the SDF-1 from the CCXCKR2 receptor)
pIC50: −log10 of the molar value.
Exercise: state measured pIC50 for each of the compounds provided.

query smiles | pIC50
Cc1ccc(C(=O)c2cn(Cc3cccc(-c4ccccc4)n3)c3ccccc3c2=O)cc1C | 6.30 to 7.00
Cc1cccc(Cn2cc(C(=O)c3cc(C)on3)c(=O)c3ccccc32)n1 | 4.70 to 6.30
Cc1cccc(Cn2cc(C(=O)c3ccnc(C)c3)c(=O)c3ccccc32)c1 | 4.70 to 6.30

// input: 2 compounds below; output: pIC50 for each
1. COc1ccc(C(=O)c2cn(Cc3cccc(C)n3)c3nc(C)c(C)cc3c2=O)cc1F
2. COc1cccc(Cn2cc(C(=O)c3ccc(C)c(C)c3)c(=O)c3ccccc32)n1

Key:
["4.70 to 6.30", "> 7.00"]
